Test system: phosphorylated-AKT
run_description: Western blot of TBI brain tissue, p-AKT
Format: in vivo
setup_conditions: rat brain cells following TBI; activity expected analogous to 205
assay_endpoint: p-Akt expression

INSERT INTO results (compound, value_reported) VALUES
  ('O=C(NCCCCCNC(=O)c1ccccc1S)c1cccnc1 [Compound 208]', 'increase'),
  ('O=C(CCCCCCNC(=O)c1ccccc1S)Nc1ccccc1 [Compound 212]', 'increase'),
  ('O=C(CCCCCCCCCCNC(=O)c1ccccc1S)Nc1ccccc1 [Compound 214]', 'increase'),
  ('O=C(CCCCCNC(=O)c1cc(Cl)ccc1S)Nc1cccnc1 [Compound 207a]', 'increase'),
  ('CN(C)c1ccc(NC(=O)CCCCCNC(=O)c2ccccc2S)cc1 [Compound 206]', 'increase'),
  ('O=C(CCCCCNC(=O)c1cc(Cl)ccc1S)Nc1ccccc1 [Compound 210]', 'increase'),
  ('COc1ccc(S)c(C(=O)NCCCCCC(=O)Nc2ccccc2)c1 [Compound 211]', 'increase'),
  ('O=C(CCCCCNC(=O)c1ccccc1S)Nc1ccccc1 [Compound 201]', 'increase'),
  ('O=C(NCCCCCCNC(=O)c1ccccc1S)c1ccccc1S [Compound 204]', 'increase'),
  ('Nc1ccc(NC(=O)CCCCCNC(=O)c2ccccc2S)cc1 [Compound 209]', 'increase'),
  ('O=C(CCCCCCCNC(=O)c1ccccc1S)Nc1ccccc1 [Compound 213]', 'increase'),
  ('O=C(NCCCCCCNC(=O)c1ccccc1O)c1ccccc1O [Compound 203]', 'increase');
